MEASURED_TARGET: Gal-1 (Homo sapiens, UniProt P09382)
Construct: made in house; host or cells: E. coli BL21(DE3)
Sequence (P09382 whole entry): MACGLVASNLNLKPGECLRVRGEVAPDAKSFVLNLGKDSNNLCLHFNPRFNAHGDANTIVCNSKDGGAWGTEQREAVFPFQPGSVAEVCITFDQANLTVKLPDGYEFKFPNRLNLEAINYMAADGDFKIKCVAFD
ASSAY_SUMMARY: Pull-down assay with immobilized protein and LSM libraries
Type: binding
TEST_CONDITIONS: H14 library; 1:1 binding assumed; read-out: Surface mapping KD (apparent)
# key: entry, value: log10(Kd)
RECORDED_METRIC: log10(Kd) (log10 of the value in µM)

1) NC(=O)CC[C@@H](CC(=O)N[C@H]1CCCC[C@@H]1C(=O)N[C@H]1CCCC[C@@H]1C(=O)N[C@H](CC(=O)N[C@H]1CCCC[C@@H]1C(N)=O)Cc1ccc(O)cc1)NC(=O)[C@H]1CCCC[C@@H]1N [H14 QY]	2.24
2) NCCCC[C@@H](CC(=O)N[C@H]1CCCC[C@@H]1C(N)=O)NC(=O)[C@H]1CCCC[C@@H]1NC(=O)[C@H]1CCCC[C@@H]1NC(=O)C[C@H](Cc1ccccc1)NC(=O)[C@H]1CCCC[C@@H]1N [H14 FK]	2.19
3) NC(=O)C[C@@H](CC(=O)N[C@H]1CCCC[C@@H]1C(=O)N[C@H]1CCCC[C@@H]1C(=O)N[C@H](CC(=O)N[C@H]1CCCC[C@@H]1C(N)=O)Cc1ccc(O)cc1)NC(=O)[C@H]1CCCC[C@@H]1N [H14 NY]	2.32
4) C[C@@H](CC(=O)N[C@H]1CCCC[C@@H]1C(=O)N[C@H]1CCCC[C@@H]1C(=O)N[C@@H](CCCNC(=N)N)CC(=O)N[C@H]1CCCC[C@@H]1C(N)=O)NC(=O)[C@H]1CCCC[C@@H]1N [H14 AR]	2.54
5) CC(C)[C@@H](CC(=O)N[C@H]1CCCC[C@@H]1C(N)=O)NC(=O)[C@H]1CCCC[C@@H]1NC(=O)[C@H]1CCCC[C@@H]1NC(=O)C[C@H](Cc1ccc(O)cc1)NC(=O)[C@H]1CCCC[C@@H]1N [H14 YV]	2.15
6) CC[C@H](C)[C@@H](CC(=O)N[C@H]1CCCC[C@@H]1C(N)=O)NC(=O)[C@H]1CCCC[C@@H]1NC(=O)[C@H]1CCCC[C@@H]1NC(=O)C[C@@H](NC(=O)[C@H]1CCCC[C@@H]1N)[C@@H](C)O [H14 TI]	2.24
7) CC(C)C[C@@H](CC(=O)N[C@H]1CCCC[C@@H]1C(N)=O)NC(=O)[C@H]1CCCC[C@@H]1NC(=O)[C@H]1CCCC[C@@H]1NC(=O)C[C@H](CC(C)C)NC(=O)[C@H]1CCCC[C@@H]1N [H14 LL]	1.23
8) CC(C)C[C@@H](CC(=O)N[C@H]1CCCC[C@@H]1C(=O)N[C@H]1CCCC[C@@H]1C(=O)N[C@@H](CC(N)=O)CC(=O)N[C@H]1CCCC[C@@H]1C(N)=O)NC(=O)[C@H]1CCCC[C@@H]1N [H14 LN]	2.50
9) CC[C@H](C)[C@@H](CC(=O)N[C@H]1CCCC[C@@H]1C(N)=O)NC(=O)[C@H]1CCCC[C@@H]1NC(=O)[C@H]1CCCC[C@@H]1NC(=O)C[C@@H](NC(=O)[C@H]1CCCC[C@@H]1N)C(C)C [H14 VI]	2.02
